Below is a list of entries, each paired with its recorded growth value.
Tested on: EKVX NSCLC
Assay: NCI-60 one-dose screen, 48 h (100 = growth as untreated, 0 = no growth, -100 = all killed)
Settings: 10 µM unless noted
This is part of a sample that, as a whole, favours compounds with a hit. Of some 83,000 tested, about 20% had one in any assay. The source made the active and inactive calls. The calls were made as follows: active = growth percent below 10; inactive = the rest.

Ask | Recorded growth of "COc1ccc2c(c1)OC13Oc4cc(OC)ccc4C=C1CCCCC3=C2" , please.
Reply | 88.8% (inactive)

Ask | Now try "CC(/C=C/c1ccccc1)=N/NC(=O)c1ccncc1" .
Reply | 107% (inactive)

Ask | Now try "C=C(C)[C@@H]1CC[C@]2(C(=O)N3CCN(C)CC3)CC[C@]3(C)[C@H](CC[C@@H]4[C@@]5(C)C/C(=C/c6ccco6)C(=O)C(C)(C)[C@@H]5CC[C@]43C)[C@@H]12" .
Reply | 68.2% (inactive)

Ask | Now try "O=C(CN1N=C(c2ccc(F)cc2)CCC1=O)Nc1nccs1" .
Reply | 98.3% (inactive)

###

System: U251 CNS
Test: NCI-60 one-dose screen, 48 h (100 = growth as untreated, 0 = no growth, -100 = all killed)
Details: 10 µM unless noted
Method: Growth inhibition of the U251 human tumor cell line is measured as a screen for anti-cancer activity. Cells are grown in 96 well plates and exposed to the test compound for 48 hours. Compounds are tested at a single concentration, which is 10^-5 M for most compounds. The reported endpoint is percent growth (GI% or GIPRCNT), where numbers from 0 - 100% represent growth inhibition, and numbers from -100% - 0 represent cell death. For example, a value of 40 represents 60% growth inhibition. […]
This is part of a sample that, as a whole, favours compounds with a hit. Of some 83,000 tested, about 20% had one in any assay.
measure name: growth (%)
Expressed in %, but write only the number.

See these solved cases before continuing.
CC(C)CSc1nc(Nc2ccccc2)c(C#N)c(-c2ccc(F)cc2)n1; -32.5
COC(=O)/C=C/c1cc(OC(C)=O)c2c(c1)C(C(=O)OC)C(c1ccc(OC(C)=O)c(OC(C)=O)c1)O2 (centres undefined); 7.2
Nc1c(C(=O)c2ccccc2)sc2nc(-c3cc4ccccc4o3)cc(-c3ccc(Cl)cc3)c12; 90

Ask | Recorded growth of "Cc1ccc(C(=O)O)o1" , please.
Reply | 98.3

###

Test system: LOX IMVI melanoma
Assay: NCI-60 one-dose screen, 48 h
Conditions: 10 µM unless noted
Protocol: Growth inhibition of the LOX IMVI human tumor cell line is measured as a screen for anti-cancer activity. Cells are grown in 96 well plates and exposed to the test compound for 48 hours. Compounds are tested at a single concentration, which is 10^-5 M for most compounds. The reported endpoint is percent growth (GI% or GIPRCNT), where numbers from 0 - 100% represent growth inhibition, and numbers from -100% - 0 represent cell death. For example, a value of 40 represents 60% growth inhibition. […]
The panel holds about 83,000 compounds, 20% with a hit somewhere; the sample as a whole holds those more often. Active and inactive are the calls of the source. How the source made its calls: active means growth percent below 10; inactive means the rest.
Your response should consist of one outcome taken from active, inactive

Ask | Assay result, entry "CO[C@@]12C=C[C@@]34CCC(=O)N3c3ccccc3[C@@H](O1)C4C2" — outcome?
Reply | inactive

These measurements were taken from PubChem BioAssay (NCI).
